# Tested on: NCI-H322M lung
# experiment_notes: NCI-60 one-dose screen, 48 h (100 = growth as untreated, 0 = no growth, -100 = all killed)
# setup_conditions: 10 µM unless noted
This is part of a sample that, as a whole, favours compounds with a hit. Of some 83,000 tested, about 20% had one in any assay. The source made the active and inactive calls. The calls were made as follows: active = growth percent below 10; inactive = the rest.

# compound, growth
rows = [
    ("S=C(Nc1ccc(-c2nc(N3CCOCC3)c3cccn3n2)cc1)Nc1cccnc1", "35.7% (inactive)"),
    ("CC(C)c1ccc(COCc2cc(CN3CCCC3)c(O)c3ncccc23)cc1", "12.2% (inactive)"),
    ("COc1cc(CNC(=O)CCCC/C=C/C(C)C)ccc1OCc1nnc(Nc2ccc([N+](=O)[O-])cc2)o1", "57.6% (inactive)"),
    ("CCCC(O)Cn1ncc(C(=O)OCC)c1NC(=O)NCc1ccccc1F (stereo unspecified)", "95.6% (inactive)"),
    ("COc1ccc(/C=C2\\COc3ccc(O)c(O)c3C2=O)cc1", "47.9% (inactive)"),
    ("Cc1cc2c(O)c(-c3cccc(Cl)c3)c3sc(=O)oc3c2cc1C", "59.8% (inactive)"),
]

* * *

# Test system: RPMI-8226 leukemia
# experiment_notes: NCI-60 one-dose screen, 48 h (100 = growth as untreated, 0 = no growth, -100 = all killed)
# setup_conditions: 10 µM unless noted
About 83,000 compounds went through this panel and 20% of them were active in at least one assay; those are over-represented in the sample as a whole.

# smiles_string, quantity_unit, growth
data = [
    ("O=C(Cn1c(=O)sc2nc3ccccc3nc21)Nc1ncc(Cc2cccc(Cl)c2Cl)s1", "%", 97.5),
    ("O=C(OCc1ccc2c(Cl)cc(Cl)c(O)c2n1)n1cncn1", "%", 32.9),
    ("O=C1Nc2ccc(Br)cc2/C1=N/c1n[nH]c(=S)s1", "%", 103),
    ("O=C1c2cccnc2C(=O)c2c1c(C(=O)NCCCN1CCCCC1)c1ccccn21", "%", -10.9),
    ("N#Cc1c(N)nnn1Cc1cc(=O)oc2c1ccc1ccccc12", "%", 97.8),
    ("O=[N+]([O-])/C(=C/C=C/c1ccccc1)c1ccccc1", "%", 35.8),
]

* * *

# Tested on: HS 578T breast
# experiment_notes: NCI-60 one-dose screen, 48 h (100 = growth as untreated, 0 = no growth, -100 = all killed)
# setup_conditions: 10 µM unless noted
The panel holds about 83,000 compounds, 20% with a hit somewhere; the sample as a whole holds those more often. Active and inactive are the calls of the source. The calls were made as follows: active = growth percent below 10; inactive = the rest.

# molecule, measured_target, growth
rows = [
    ("Cn1cc(-c2csc(-c3ccc(Cl)cc3)n2)c2cccnc21", "HS 578T breast", "9.04% [100 µM] (active)"),
    ("CC1=C(CCC(C)N(C)Cc2ccc(OCCCN3CCCC3)cc2)C(C)(C)CCC1 (centres undefined)", "HS 578T breast", "36.4% (inactive)"),
    ("CCCCC(=O)Nc1ncc(Cc2ccc(Cl)cc2)s1", "HS 578T breast", "72.9% (inactive)"),
    ("CCCCC[C@@H]1Cc2cc(O)c(C(=O)O)c3c2[C@H](C[C@]2(OC[C@@H](CC(=O)[C@@](C)(CC)C(=O)OC)[C@@H]2C)O3)O1", "HS 578T breast", "99.8% (inactive)"),
    ("COc1cc(N2C(=O)[C@H](O)C2c2ccc(SC)cc2)cc(OC)c1OC (some centres undefined)", "HS 578T breast", "34.9% (inactive)"),
    ("COc1cc2oc(-c3cccc(NC(=O)c4cccc(Br)c4)c3)cc(=O)c2c(OC)c1OC", "HS 578T breast", "47.1% (inactive)"),
    ("C=CCn1c(SCC(=O)Nc2ccc(C(=O)/C=C/c3cc4cc(OC)ccc4nc3Cl)cc2)nnc1-c1ccc(Br)cc1", "HS 578T breast", "89.2% (inactive)"),
    ("N#Cc1cnc(NCCc2ccncc2)nc1-n1cnc2ccccc21", "HS 578T breast", "72.1% (inactive)"),
    ("COc1ccc(-c2nnc(-c3ccc4c(c3)nc(-c3ccncc3)n4C3CCCCC3)o2)cc1", "HS 578T breast", "68.6% (inactive)"),
]
